Exercise: for every item that follows, state its recorded activity at 50 µM.
# test target: GGTase I (substrate K-Ras4B) (Homo sapiens, UniProt P49354+P53609)
# measurement protocol: GGTase I filter-binding assay with K-Ras4B as substrate
# Assay type: biochemical
# measurement parameters: read-out: % activity of GGTase I for protein K-Ras4B in the presence of the compound
# Method: The pilot library was screened for inhibitors of protein geranylgeranyltransferase type I. Protein prenyltransferase assays were carried out by using filter binding. Two different substrates, RhoA and K-Ras4B, were used for the assay. […] The % activity of GGTase I was determined as follows: a working solution that contained each compound in DMSO at the concentration of 1 mM was prepared. […]
Answers are plain numbers, in %.

Observe how each entry below is paired with its result.
{"compound": "Cc1ccc(S(=O)(=O)N2[C@@H](c3cccc(F)c3)C(C(=O)O)=C[C@H]2C(C)(C)C)cc1", "property": "activity at 50 µM", "result units": "%", "quantitative readout": 23.7}
{"compound": "Cc1ccccc1S(=O)(=O)N1[C@@H](c2ccc(Cl)cc2)C(C(=O)O)=C[C@H]1CC1CCCC1", "property": "activity at 50 µM", "result units": "%", "quantitative readout": 23.7}
{"compound": "Cc1ccc(S(=O)(=O)N2C(c3ccc(Cl)c(Cl)c3)CC=C(C(=O)O)[C@@H]2c2cccc(Cl)c2)cc1 (stereo partly drawn)", "property": "activity at 50 µM", "result units": "%", "quantitative readout": 10.7}
{"compound": "Cc1ccccc1S(=O)(=O)N1C(c2ccc(Cl)cc2)CC=C(C(=O)O)[C@@H]1c1ccccc1 (stereo partly drawn)", "property": "activity at 50 µM", "result units": "%", "quantitative readout": 13.4}
{"compound": "Cc1ccc(S(=O)(=O)N2C(c3ccc(Cl)c(Cl)c3)CC=C(C(=O)O)[C@@H]2c2ccc(Br)cc2)cc1 (stereo partly drawn)", "property": "activity at 50 µM", "result units": "%", "quantitative readout": 18.7}

Now consider a different compound.
Request: What does the record list as activity at 50 µM for Cc1ccc(S(=O)(=O)N2C(c3ccc(Cl)c(Cl)c3)CC=C(C(=O)O)[C@@H]2c2cccc(Br)c2)cc1 (stereo partly drawn) ?
Response: 8.6
